The following compounds are listed with their measured growth values.
Test system: LOX IMVI melanoma
Test: NCI-60 one-dose screen, 48 h (100 = growth as untreated, 0 = no growth, -100 = all killed)
Conditions: 10 µM unless noted
About 83,000 compounds went through this panel and 20% of them were active in at least one assay; those are over-represented in the sample as a whole.
assayEndpoint: growth (%)

1) C[C@H]1c2ccccc2CN1CCCOc1cc2c(cc1OCC1CC1)C1(CCCC1)C(N)=N2	-70.2
2) CC(C)=CCC[C@](C)(O)C1CC[C@]2(C)[C@@H]1CC[C@@H]1[C@@]3(C)CC/C(=N\OCCC#N)C(C)(C)[C@@H]3CC[C@]12C (some centres not stated)	89.2
3) O=C1C2C(c3cccs3)C=C(c3ccc(Cl)cc3)N2C(=S)N1c1ccccc1 (configuration not stated)	98
4) CCn1c2ccccc2c2cc(C(O)c3cccc4ncccc34)ccc21 (configuration not stated)	-8.41
5) CN1CCN(CCCNC(=O)c2c3c(n4ccccc24)C(=O)c2ncccc2C3=O)CC1	-31.7
6) O=C1CCC(C(=O)N/N=C/c2ccc([N+](=O)[O-])cc2)N1 (configuration not stated)	91.9
7) Cc1ccc(-c2nn(CC(=O)N3CCOCC3)c(N)c2C#N)cc1	100
8) O=C1C(Nc2ccc(Br)cc2)=C(I)C(=O)c2ncccc21	-3
9) CC1(C)C2=C(C(=O)N1Cc1ccccc1)C(c1ccco1)N(C(=O)C1CCC1)CCN2 (configuration not stated)	96.8
10) Cn1ncc(CC(=O)O)c1-n1nnc2cc(Cl)ccc2c1=O	103
11) COc1cccc(-c2cc(-c3ccc(Nc4nc(Nc5ccc(Cl)cc5)nc(Nc5ccc(Cl)cc5)n4)cc3)nc(N)c2C#N)c1	-33.6
12) COc1nc2ccccc2cc1/C=C1/C=C(c2ccccc2)NC1=O	38.8
13) Cc1ccc(-c2nc(C#N)c(S(=O)(=O)n3nc(C)cc3N)o2)cc1	56.4
14) COc1cc2ncnc(Nc3ccc(S(=O)(=O)Nc4cc(C)on4)cc3)c2cc1OCCCN1CCOCC1	96.4
15) O=C(N/N=C/c1ccccc1Cl)c1ccccc1Nc1ccnc(C(F)(F)F)c1	4.1
16) CN(C)CCOc1ccc(/C(=C(/CCCCCCCCCC[P+](c2ccccc2)(c2ccccc2)c2ccccc2)c2ccccc2)c2ccccc2)cc1	-89.9
17) COC(=O)[C@H]1Cc2c([nH]c3ccccc23)[C@H](c2ccc3c(c2)OCO3)N1	93.6
18) O=C1CC2C=CCN2C=C1NC(=O)c1ccccc1 (configuration not stated)	99.3
19) [2H]C([2H])([2H])Oc1ccc(/C=C/C(=O)/C=C(O)/C=C/c2ccc(OC([2H])([2H])[2H])c(OC([2H])([2H])[2H])c2)cc1OC([2H])([2H])[2H]	14.5
20) CCOC(=O)c1c(C)nc2c(c1N)C(=O)C(=O)N2CCc1ccc(OC)c(OC)c1	76.9
21) Clc1nc(N2CCC[N+]3(CC2)CC[N+]2(CCCNCC2)CC3)nc(N2CCC[N+]3(CC2)CC[N+]2(CCCNCC2)CC3)n1 (configuration not stated)	98
22) O=C(CN1C(=O)c2ccccc2S1(=O)=O)Nc1nc(-c2cc3ccccc3oc2=O)cs1	99.5
23) Oc1ccc(C(c2ccc(O)cc2)c2ccc(Cl)cn2)cc1	-42.6
24) O=C(CSc1nnc(-c2cc(-c3ccc(Cl)cc3)nc3ccccc23)n1-c1ccccc1)Nc1ccc(Cl)cc1	95.8
25) Cn1ccnc1C(=O)/C=C/c1ccc(CC(=O)Nc2cc(F)c(F)c(F)c2)cc1	-3.99
26) COc1cccc(C2C3=C(COC3=O)N(CCO)c3cc4c(cc32)OCCO4)c1 (configuration not stated)	22.1
27) Cc1nn(C)c2ncnc(Nc3ccccc3Br)c12	101
28) [2H]C([2H])([2H])Oc1ccc(/C=C/C(=O)/C=C(/C=C/c2ccc(OC([2H])([2H])[2H])c(OC([2H])([2H])[2H])c2OC([2H])([2H])[2H])OB(F)F)c(OC([2H])([2H])[2H])c1OC([2H])([2H])[2H]	13.2
29) CC/C(=C(/c1ccc(Cl)cc1)c1ccc(OCCN2CCCC2)cc1)c1ccccc1	32.4
30) C1=C2CCCC3=Cc4ccccc4OC23Oc2ccccc21	23
31) C#Cc1c(I)n(C2OC(CO[Si](C)(C)C(C)(C)C)C3OC(C)(C)OC32)c(=O)[nH]c1=O (configuration not stated)	-80.6
32) COc1cccc2cc(N(C)c3nc(C)nc4c3CCC4)ccc12	19.3
33) CCOC(=O)C1=C(C)N(C)C(=O)N(C)C1c1ccccc1 (configuration not stated)	96.1
34) C=CCNc1ccc2c3c(cccc13)C(=O)N(CC=C)C2=O	92
35) Oc1c(Cl)cc(Cl)c2ccc(CN3CCNCC3)nc12	45.3
36) Cc1ccc(OCCOCCOCCOCCOc2ccc(C)n(O)c2=S)c(=S)n1O	4.26
37) C=C1/C(=C\C=C2/CCC[C@]3(C)[C@@H]([C@H](C)CCCC(C)(C)O)CC[C@@H]23)C[C@@H](OC(=O)CBr)C[C@@H]1O	-50.9
